Tested on: Vero 76
METHOD: Cytotoxicity against monkey Vero 76 cells by neutral red uptake assay
Format: cell-based
MEASUREMENT PARAMETERS: chlorocebus sabaeus, vero 76
TEST READOUT: CC50

Illustrative cases are given below, each with its answer.
TEST SMILES	CC50
NC(=O)c1ncn([C@H]2[C@H](O)[C@H](O)[C@]3(CO)C[C@H]23)n1	> 50 µM
CC(C)(O)[C@@H](Nc1nc(Cl)nc2c1ncn2[C@H]1[C@H](O)[C@H](O)[C@]2(CO)C[C@H]12)C1CC1	> 100 µM

query: Give me measured CC50, please, for this compound: CSc1nc(N[C@H](C(C)C)C2CC2)c2ncn([C@H]3[C@H](O)[C@H](O)[C@]4(CO)C[C@H]34)c2n1
result: > 100 µM

query: Give me measured CC50, please, for this compound: CC(C)[C@@H](Nc1nc(Cl)nc2c1ncn2[C@H]1[C@H](O)[C@H](O)[C@@H]2C[C@@H]21)C1CC1
result: > 50 µM

query: Give me measured CC50, please, for this compound: CC(C)C(Nc1nc(Cl)nc2c1ncn2[C@H]1[C@H](O)[C@H](O)[C@]2(CO)C[C@H]12)C(C)C
result: > 100 µM

* * *

System: Vero 76
METHOD: Cytotoxicity against monkey Vero 76 cells by neutral red uptake assay
Format: cell-based
MEASUREMENT PARAMETERS: chlorocebus sabaeus, vero 76
TEST READOUT: CC50 (µM)
Record the value in µM, omitting the unit from your answer.

Illustrative cases are given below, each with its answer.
TEST SMILES	TESTED ON	TEST READOUT	VAL
OC[C@@]12C[C@@H]1[C@@H](n1cnc3c(N[C@H](C4CCC4)C4CC4)nc(Cl)nc31)[C@H](O)[C@@H]2O	Vero 76	CC50	14
NCCCNC(=O)[C@@]12C[C@@H]1[C@@H](n1cnc3c(NC(C4CC4)C4CC4)nc(Cl)nc31)[C@H](O)[C@@H]2O	Vero 76	CC50	50
CCOC(=O)c1ccc(OCCC2CCN(c3ccc(C)nn3)CC2)cc1	Vero 76	CC50	17
O[C@@H]1[C@H](O)[C@@H]2C[C@@H]2[C@H]1n1ccc2c(NC(C3CC3)C3CC3)nc(I)nc21	Vero 76	CC50	44

query: Give me measured CC50, please, for this compound: O=C(O)[C@@]12C[C@@H]1[C@@H](n1cnc3c(NC(C4CC4)C4CC4)nc(Cl)nc31)[C@H](O)[C@@H]2O
result: 50

* * *

selectivity ratio by entry:
METHOD: in vitro
MEASUREMENT PARAMETERS: monkey, Vero 76 cells

COMPOUND	selectivity ratio
CC(C)[C@@H](Nc1nc(Cl)nc2c1ncn2[C@H]1[C@H](O)[C@H](O)[C@@H]2C[C@@H]21)C1CC1	> 3.1
OC[C@@]12C[C@@H]1[C@@H](n1cnc3c(N[C@H](C4CCC4)C4CC4)nc(Cl)nc31)[C@H](O)[C@@H]2O	> 3.1
O[C@@H]1[C@H](O)[C@@H]2C[C@@H]2[C@H]1n1cnc2c(NC(C3CC3)C3CC3)nc(Cl)nc21	> 28

Shift focus to the following entry.
query: Give me measured selectivity ratio, please, for this compound: CCOC(=O)c1ccc(OCCC2CCN(c3ccc(C)nn3)CC2)cc1 [PIRODAVIR]
result: > 31

* * *

CC50 by entry:
System: Vero 76
METHOD: Cytotoxicity against monkey Vero 76 cells by microscopic analysis
Type: cell-based
MEASUREMENT PARAMETERS: chlorocebus sabaeus, vero 76

Illustrative cases are given below, each with its answer.
TEST SMILES	CC50
CC[C@@H](Nc1nc(SC)nc2c1ccn2[C@H]1[C@H](O)[C@H](O)[C@]2(CO)C[C@H]12)C1CC1	> 50 µM
CC(C)[C@@H](Nc1nc(Cl)nc2c1ncn2[C@H]1[C@H](O)[C@H](O)[C@]2(CN)C[C@H]12)C1CC1	32 µM
O[C@@H]1[C@H](O)[C@@H]2C[C@@H]2[C@H]1n1ccc2c(NC(C3CC3)C3CC3)nc(I)nc21	100 µM
OC[C@H]1O[C@@H](n2cnc3c(NC(C4CC4)C4CC4)ncnc32)[C@H](O)[C@@H]1O	> 50 µM
NCCCNC(=O)[C@@]12C[C@@H]1[C@@H](n1cnc3c(NC(C4CC4)C4CC4)nc(Cl)nc31)[C@H](O)[C@@H]2O	> 50 µM

query: Give me measured CC50, please, for this compound: CC[C@H](Nc1nc(Cl)nc2c1ncn2[C@H]1[C@H](O)[C@H](O)[C@]2(CO)C[C@H]12)C1CC1
result: > 50 µM

* * *

Test system: Vero 76
METHOD: Cytotoxicity against monkey Vero 76 cells by neutral red uptake assay
Format: cell-based
MEASUREMENT PARAMETERS: chlorocebus sabaeus, vero 76
CC50 by entry:

query: Give me measured CC50, please, for this compound: OC[C@H]1O[C@@H](n2cnc3c(NC(C4CC4)C4CC4)ncnc32)[C@H](O)[C@@H]1O
result: > 50 µM

query: Give me measured CC50, please, for this compound: CC[C@H](Nc1nc(Cl)nc2c1ncn2[C@H]1[C@H](O)[C@H](O)[C@]2(CO)C[C@H]12)C1CC1
result: > 50 µM

query: Give me measured CC50, please, for this compound: CC[C@@H](Nc1nc(SC)nc2c1ccn2[C@H]1[C@H](O)[C@H](O)[C@]2(CO)C[C@H]12)C1CC1
result: > 50 µM

query: Give me measured CC50, please, for this compound: CC(C)(C)[C@H](Nc1nc(Cl)nc2c1ncn2[C@H]1[C@H](O)[C@H](O)[C@]2(CO)C[C@H]12)C1CC1
result: > 100 µM
